Where do these numbers come from? They come from patent US6894185B2.

Target: purified stripped human adult hemoglobin (Homo sapiens, UniProt P68871+P69905)
Construct: using purified stripped human adult hemoglobin as described previously; from tissue
Sequence (P69905 2-142 limits assumed): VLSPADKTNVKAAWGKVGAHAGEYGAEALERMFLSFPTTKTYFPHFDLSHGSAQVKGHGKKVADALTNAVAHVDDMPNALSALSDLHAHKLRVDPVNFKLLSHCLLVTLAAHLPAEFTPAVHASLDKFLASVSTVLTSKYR
Sequence (P68871 2-147 limits assumed): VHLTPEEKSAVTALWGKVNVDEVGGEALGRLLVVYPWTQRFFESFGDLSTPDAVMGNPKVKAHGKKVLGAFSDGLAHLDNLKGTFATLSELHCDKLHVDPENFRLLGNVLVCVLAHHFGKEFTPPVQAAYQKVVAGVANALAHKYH
Experiment: Hemoglobin solution oxygen equilibrium studies (HEMOX-analyzer)
Assay type: biochemical
Conditions: Table IV; ratio to P50 control with no effector (5.0 mmHg); 0.5 mM effector, pH 7.2
Each entry falls into one class according to its P50e/P50c; the ranges are Low = under 2, Mid = from 2 up to 3, High = 3 and over

Examples from the recorded data:
- molecule: "Cc1cc(Cl)cc(NC(=O)Cc2ccc(OC(C)(C)C(=O)O)cc2)c1 [KDD86, reference compound]"
  group: "High"
- molecule: "Cc1cc(C)cc(NC(=O)Cc2ccc(OC3(C(=O)O)CCC(C)C3)cc2)c1 (stereo not shown)"
  group: "Mid"
- molecule: "CCCC(C)(Oc1ccc(CC(=O)Nc2cc(C)cc(C)c2)cc1)C(=O)O (stereo not shown)"
  group: "Mid"
- molecule: "CC1CCC(Oc2ccc(CC(=O)Nc3ccc4c(c3)CCC4)cc2)(C(=O)O)C1 (stereo not shown)"
  group: "Mid"
- molecule: "COCC(C)(Oc1ccc(CC(=O)Nc2cc(C)cc(C)c2)cc1)C(=O)O (stereo not shown)"
  group: "Low"
- molecule: "Cc1cc(C)cc(NC(=O)Cc2ccc(OC3(C(=O)O)CCOC3C)cc2)c1 (stereo not shown)"
  group: "Low"

Band for Cc1cc(Cl)cc(NC(=O)Cc2ccc(OC3(C(=O)O)CCCC3C)cc2)c1 (stereo not shown) ?
High

Band for Cc1cc(C)cc(NC(=O)Cc2ccc(OC(C)(C)C(=O)O)cc2)c1 [RSR13, reference compound] ?
High

Band for Cc1cc(C)cc(NC(=O)Cc2ccc(OC3(C(=O)O)CCCC(C)C3)cc2)c1 (stereo not shown) ?
Mid

Band for Cc1cc(C)cc(NC(=O)Cc2ccc(OC3(C(=O)O)CCOCC3)cc2)c1 ?
Low

Band for CCC(C)(Oc1ccc(CC(=O)Nc2cc(C)cc(C)c2)cc1)C(=O)O (stereo not shown) ?
Mid

Band for Cc1cc(C)cc(NC(=O)Cc2ccc(OC(F)C(=O)O)cc2)c1 (stereo not shown) ?
Low

Band for Cc1cc(C)cc(NC(=O)Cc2ccc(OC3(C(=O)O)CCCC3C)cc2)c1 (racemic) ?
High
